# Ki per entry
Target: T1, human oxytocin receptor (hOTR) (human, UniProt P30559 1-389)
T1 construct: oxytocin receptor, human; in membrane preparations or on cells; constructs are in the Supporting Information; source: HEK293, stably expressing; membrane preparations (radioligand assay); free-floating cells (FACS)
T1 sequence (looked up): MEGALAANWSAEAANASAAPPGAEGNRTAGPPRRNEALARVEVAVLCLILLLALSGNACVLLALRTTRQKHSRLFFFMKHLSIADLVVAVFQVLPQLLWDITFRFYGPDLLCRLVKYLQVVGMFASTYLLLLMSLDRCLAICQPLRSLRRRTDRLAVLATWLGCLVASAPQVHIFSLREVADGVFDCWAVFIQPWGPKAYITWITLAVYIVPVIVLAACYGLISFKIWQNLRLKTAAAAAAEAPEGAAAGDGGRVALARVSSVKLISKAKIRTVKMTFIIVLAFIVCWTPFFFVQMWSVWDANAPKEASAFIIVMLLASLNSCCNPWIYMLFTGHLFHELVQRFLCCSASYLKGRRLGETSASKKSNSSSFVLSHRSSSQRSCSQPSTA
Test: radioligand binding; displacement of [3H]-OT or [3H]-VP from membrane preparations of HEK293 cells stably expressing the human receptor; dose-response curves in duplicates, at least three independent experiments; Ki >10 µM assigned where <25% of the radioligand was displaced at 10 µM
Settings: one partner purified
Positions of bridges follow the written chain, without caps; N, C: chain ends. Non-standard residues stand in square brackets, D forms with d. Groups on a side chain read outwards from the residue. Primed or numbered codes have the meaning given here. No end group written: not given here. εdLys = D-Lys linked through its epsilon amine (k^ε); PEG5′ = PEG5 spacer, as named in the construct; Cy3s = Cy3s fluorophore, as named; Cy5s = Cy5s fluorophore, as named; Orn = NCCC[C@H](N)C(=O)O; Mpa = O=C(O)CCS
API: value field is a number in nM; no unit string.

Binder | Value
[Mpa]YIQNCP[Orn]G (disulfide 1-6) [d(Orn)^8OT] | 0.7
[Mpa]YIQNCP[Orn]([PEG5′-PEG5′-εdLys-Cy3s])G (disulfide 1-6) [d(Orn)^8OT‐[PEG5‐PEG5‐k^ε‐Cy3s]^8] | 1.5

We now examine a further binder.
q: Param item = [Mpa]YIQNCP[Orn]([dD-PEG5′-Cy5s])G (disulfide 1-6) [d(Orn)^8OT‐[d‐PEG5‐Cy5s]^8] ; retrieve measured Ki.
a: 6
